assay_target: recombinant SARS-CoV-2 Main protease (Mpro) (Severe acute respiratory syndrome coronavirus 2 (2019-nCoV) (SARS-CoV-2))
assay_protocol: Cov Mpro Biochemical IC50 Assay
condition: recombinant SARS-CoV-2 Mpro 7.5 nM, fluorogenic peptide substrate 40 μM; read-out: MPro IC50
assay_metric: IC50 (nM)

COc1cncc(-n2c(=O)c3sc(-c4ccccc4Cl)cc3n(CCC#N)c2=O)c1    21.7
COc1cc(-c2cc3c(s2)c(=O)n(-c2cncc4ccsc24)c(=O)n3CC2(C#N)CC2)c(Cl)cc1F    3.4
Cc1cnnc(-n2c(=O)c3sc(-c4ccccc4C#N)cc3n(CCC#N)c2=O)c1    32.5
COc1cc(-c2cc3[nH]c(=O)n(-c4cncc5c(F)cccc45)c(=O)c3s2)c(Cl)cc1F    8.16
COc1cc(-c2cc3[nH]c(=O)n(-c4cncc5cnn(CC(F)F)c45)c(=O)c3s2)c(Cl)cc1F    10.1
COc1cc(-c2cc3[nH]c(=O)n(-c4cncc5c(CO)nn(C)c45)c(=O)c3s2)c(Cl)cc1F    10.6
COc1cc(-c2cc3c(s2)c(=O)n(-c2cncc4cnn(C)c24)c(=O)n3CC(F)(F)F)c(Cl)cc1F    15.3
